Where do these numbers come from? They come from ChEMBL document CHEMBL1121902.

# Test system: Canis familiaris
# PROCEDURE_SUMMARY: Compound was tested for its ability to block isoproterenol-induced contractile force in anesthetized dogs.
# RUN_PARAMETERS: Canis lupus familiaris, read-out: pA2 app (converted)
Structures can show the parent of a compound that is named as a salt.
QUANTITY_MEASURED: Kb (nM)
Respond with the bare value in nM.

>  <COMPOUND>
CC(C)NCC(O)COc1cc(O)cc2ccccc12 (configuration not stated)

>  <SYSTEM>
Canis familiaris

>  <RESULT_VALUE>
107

$$$$

Query :: Given the entry CC(C)NCC(O)COc1cccc2c(O)cccc12 (configuration not stated) , report its measured Kb.
Result :: 32.4

Query :: Given the entry CC(C)NCC(O)COc1ccc(O)c2ccccc12 (configuration not stated) [4-HYDROXYPROPRANOLOL SULFATE] , report its measured Kb.
Result :: 28.8

Query :: Given the entry CC(C)NCC(O)COc1c(O)ccc2ccccc12 (configuration not stated) , report its measured Kb.
Result :: 646

Query :: Given the entry CC(C)NCC(O)COc1cccc2ccc(O)cc12 (configuration not stated) , report its measured Kb.
Result :: 17.4

Query :: Given the entry CC(C)NCC(O)COc1cccc2cccc(O)c12 (configuration not stated) , report its measured Kb.
Result :: 155

Query :: Given the entry CC(C)NCC(O)COc1cccc2cc(O)ccc12 (configuration not stated) , report its measured Kb.
Result :: 4.37

---

# Tested on: Canis familiaris
# PROCEDURE_SUMMARY: Compound was tested for its ability to block isoproterenol-induced vasodilation in anesthetized dogs.
# RUN_PARAMETERS: Canis lupus familiaris, read-out: pA2 app (converted)
Structures can show the parent of a compound that is named as a salt.
Entries and their measured log10(Kb) follow.
The common logarithm of Kb in µM is what is listed.

Take a look at these entries with their results.
>  <COMPOUND>
CC(C)NCC(O)COc1cccc2cccc(O)c12 (configuration not stated)

>  <log10(Kb)>
-1.26

$$$$
>  <COMPOUND>
CC(C)NCC(O)COc1cccc2ccc(O)cc12 (configuration not stated)

>  <log10(Kb)>
-1.58

$$$$
>  <COMPOUND>
CC(C)NCC(O)COc1ccc(O)c2ccccc12 (configuration not stated) [4-HYDROXYPROPRANOLOL SULFATE]

>  <log10(Kb)>
-1.50

$$$$
>  <COMPOUND>
CC(C)NCC(O)COc1cccc2cc(O)ccc12 (configuration not stated)

>  <log10(Kb)>
-2.35

$$$$
>  <COMPOUND>
CC(C)NCC(O)COc1c(O)ccc2ccccc12 (configuration not stated)

>  <log10(Kb)>
-0.33

$$$$
>  <COMPOUND>
CC(C)NCC(O)COc1cccc2c(O)cccc12 (configuration not stated)

>  <log10(Kb)>
-1.68

$$$$

Query :: Record CC(C)NCC(O)COc1cc(O)cc2ccccc12 (configuration not stated) : what is its log10(Kb) with Canis familiaris?
Result :: -1.23

---

# PROCEDURE_SUMMARY: Beta adrenergic receptor antagonist potency relative to propranolol.
# Type: functional
Structures can show the parent of a compound that is named as a salt.
Entries and their measured Relative potency follow.
Could you respond with only the numeric value?

Take a look at these entries with their results.
>  <COMPOUND>
CC(C)NCC(O)COc1c(O)ccc2ccccc12 (configuration not stated)

>  <Relative potency>
0.03

$$$$
>  <COMPOUND>
CC(C)NCC(O)COc1cc(O)cc2ccccc12 (configuration not stated)

>  <Relative potency>
0.16

$$$$
>  <COMPOUND>
CC(C)NCC(O)COc1cccc2cc(O)ccc12 (configuration not stated)

>  <Relative potency>
3.82

$$$$
>  <COMPOUND>
CC(C)NCC(O)COc1ccc(O)c2ccccc12 (configuration not stated) [4-HYDROXYPROPRANOLOL SULFATE]

>  <Relative potency>
0.77

$$$$
>  <COMPOUND>
CC(C)NCC(O)COc1cccc2cccc(O)c12 (configuration not stated)

>  <Relative potency>
0.17

$$$$
>  <COMPOUND>
CC(C)NCC(O)COc1cccc2ccc(O)cc12 (configuration not stated)

>  <Relative potency>
0.95

$$$$

// below: Relative potency requested for another compound
Query :: Given the entry CC(C)NCC(O)COc1cccc2c(O)cccc12 (configuration not stated) , report its measured Relative potency.
Result :: 0.56
